Measured on: Phosphatidylinositol 4,5-bisphosphate 3-kinase catalytic subunit alpha isoform (Homo sapiens, UniProt P42336)
Sequence (P42336 whole entry, canonical isoform): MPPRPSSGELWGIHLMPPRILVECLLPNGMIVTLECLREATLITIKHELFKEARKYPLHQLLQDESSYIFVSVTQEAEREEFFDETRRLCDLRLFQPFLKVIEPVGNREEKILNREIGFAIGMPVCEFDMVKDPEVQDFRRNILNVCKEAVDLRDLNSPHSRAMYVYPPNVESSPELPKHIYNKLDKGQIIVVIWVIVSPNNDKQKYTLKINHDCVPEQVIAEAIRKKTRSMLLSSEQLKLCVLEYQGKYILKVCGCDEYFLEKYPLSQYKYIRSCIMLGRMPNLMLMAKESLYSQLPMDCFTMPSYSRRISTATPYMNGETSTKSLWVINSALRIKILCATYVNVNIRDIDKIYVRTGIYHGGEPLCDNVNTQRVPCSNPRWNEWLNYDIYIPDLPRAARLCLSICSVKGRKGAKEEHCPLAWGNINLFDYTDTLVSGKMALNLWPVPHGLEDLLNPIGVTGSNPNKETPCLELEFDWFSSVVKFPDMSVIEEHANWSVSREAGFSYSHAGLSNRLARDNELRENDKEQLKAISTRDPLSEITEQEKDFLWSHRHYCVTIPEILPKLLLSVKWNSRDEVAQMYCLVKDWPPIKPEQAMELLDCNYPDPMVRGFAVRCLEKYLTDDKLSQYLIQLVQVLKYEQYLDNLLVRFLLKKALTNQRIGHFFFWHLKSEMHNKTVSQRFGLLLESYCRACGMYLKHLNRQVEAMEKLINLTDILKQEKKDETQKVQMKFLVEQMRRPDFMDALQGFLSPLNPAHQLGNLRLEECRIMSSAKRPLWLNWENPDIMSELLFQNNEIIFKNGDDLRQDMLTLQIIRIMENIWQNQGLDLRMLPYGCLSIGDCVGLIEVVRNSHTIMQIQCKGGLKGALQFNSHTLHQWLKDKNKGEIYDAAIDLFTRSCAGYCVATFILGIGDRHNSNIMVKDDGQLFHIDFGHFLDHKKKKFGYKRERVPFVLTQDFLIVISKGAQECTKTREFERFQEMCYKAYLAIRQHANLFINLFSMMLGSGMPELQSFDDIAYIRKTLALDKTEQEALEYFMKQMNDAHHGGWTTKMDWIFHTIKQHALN
Assay summary: Inhibition of PI3Kalpha (unknown origin) expressed in SF21 cells using phosphatidylinositol as substrate after 60 mins by Kinase-Glo assay
pIC50: −log10 of the molar value.
Measurement kind: pIC50

CC(C)c1nc2ccccc2n1-c1nc(N2CCOCC2)nc(N2CCOCC2)n1 = 6.37

[1] COc1ccc2nc(C(F)F)n(-c3nc(N4CCOCC4)nc(N4CCOCC4)n3)c2c1
[2] COc1ccc2nc(C(C)C)n(-c3nc(N4CCOCC4)nc(N4CCOCC4)n3)c2c1
[3] COc1ccc2c(c1)nc(C)n2-c1nc(N2CCOCC2)nc(N2CCOCC2)n1
[in] Hey, can you sort those compounds up there by pIC50, smallest first? Answer format: the labels, in the requested order.
[out] 3, 2, 1
